Test system: phosphorylation of Akt at Serine 473 in U87 MG cells
methodSummary: cells
conditionNotes: Homo sapiens, U-87 MG, 2 h, read-out: U87Cell IC50, pAkt (Ser 473), U87 MG cells, two hours with compound
Quick list: IC50 per entry.
Respond numerically; units are nM and should not be typed.

These recorded examples may help you get a feel for the data.
molecule	unitTag	IC50
COc1ccc(Nc2ncc(C(C)N3CCN(S(C)(=O)=O)CC3)cc2-c2nc(C)nc3[nH]cnc23)cn1 (stereo not shown)	nM	34
CCNc1cnc(Nc2ccc(OC)nc2)c(-c2nc(C)nc3[nH]cnc23)c1	nM	1230
Cc1nc(N)nc(-c2cc(C(C)N3CCN(S(C)(=O)=O)CC3)cnc2Nc2ccc3scnc3c2)n1 (stereo not shown)	nM	45

// switching to the query molecule
Reported IC50 ( COc1ccc(Nc2ncc(CN3CCOC[C@@H]3C)cc2-c2nc(C)nc(N)n2)cn1 ) = 295
